Cited source for all entries: patent US9234000B2

- assay-name: Determination of thermodynamic solubility in phosphate buffer
- Type: physicochemical
- measurement-conditions: pH 7.4, aqueous buffer, thermodynamic from solid, ammonium phosphate buffer pH7.4, 290 mOsm, 37° C., nominal 1 mg/mL, read-out: Solubility in PO4 buffer
Catalogue of solubility at 1 h readings, one per entry.
Quick note: give the figure in µg/mL, leave out the unit.

Solved cases (2 shown):
CCOc1ccc(C[C@@H](NC(=O)c2ccc(Cl)c(Cl)c2)C(=O)N[C@@H](Cc2ccccc2)C(=O)NCc2ccc(CN)cc2)cc1    0.01
CCOc1ccc(C[C@@H](NS(=O)(=O)c2ccc(Cl)cc2)C(=O)N[C@@H](Cc2ccccc2)C(=O)NCc2ccc(CN)cc2)cc1    0.5

From here, focus on the item given below.
Query: Would you kindly share the measured solubility at 1 h for `CCOc1ccc(C[C@@H](NC(=O)c2ccccc2)C(=O)N[C@@H](Cc2cccs2)C(=O)NCc2ccc(CN)cc2)cc1` ?
Response: 0.12
